# measured_on: CDPK1 (Plasmodium falciparum, UniProt P62344)
# Sequence (P62344 whole entry): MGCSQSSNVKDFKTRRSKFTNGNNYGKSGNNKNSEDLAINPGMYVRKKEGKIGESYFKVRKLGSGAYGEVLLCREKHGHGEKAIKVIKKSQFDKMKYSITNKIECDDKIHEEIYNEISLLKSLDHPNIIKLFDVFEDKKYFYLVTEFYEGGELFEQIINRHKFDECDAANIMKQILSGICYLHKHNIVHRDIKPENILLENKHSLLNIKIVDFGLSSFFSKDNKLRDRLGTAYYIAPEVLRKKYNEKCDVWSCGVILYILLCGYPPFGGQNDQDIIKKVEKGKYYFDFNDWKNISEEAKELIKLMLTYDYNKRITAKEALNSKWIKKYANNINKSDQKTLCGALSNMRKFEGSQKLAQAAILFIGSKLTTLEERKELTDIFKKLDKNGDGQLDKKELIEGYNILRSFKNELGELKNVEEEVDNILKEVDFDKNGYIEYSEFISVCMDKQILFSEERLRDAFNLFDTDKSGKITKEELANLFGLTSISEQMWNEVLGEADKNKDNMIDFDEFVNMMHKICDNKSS
# procedure_text: biochemical
# Assay type: biochemical
# experimental_context: Table S2; read-out: Enzyme inhibition IC50, CDPK1
readout_kind: IC50 (nM)
Give a bare numeral; the unit nM is implied.

Fc1cc(-c2cnc3ccc(NC4CCNCC4)nn23)cnc1Nc1cnccn1; 17
CN1CCC(Nc2ccc3ncc(-c4cnc(Nc5cnccn5)c(F)c4)n3n2)CC1; 20
CC(C)CCNc1ncc(-c2cnc3ccc(NC4CCN(C)CC4)nn23)cn1; 14
Fc1cc(-c2cnc3ccc(NC4CCNCC4)nn23)cnc1Nc1ccccn1; 13

The record that follows has no IC50 shown yet.
Ask: Give the observed IC50 of `Fc1cc(-c2cnc3ccc(NC4CCNCC4)nn23)ccc1Nc1ccccn1` for CDPK1 (Plasmodium falciparum, UniProt P62344).
Reply: 10

###

Let's look at some compounds and their measured Ratio 3D7 PKG T618Q/3D7.
# System: 3D7 PKG T618Q
# procedure_text: microbe, parasite or virus in culture
# Format: cell-based, Plasmodium falciparum
# experimental_context: Table S2
Could you keep your reply to the number by itself?

CNc1ccc2ncc(-c3ccc(NCCC(C)C)nc3)n2n1; 1
CN1CCC(CNc2ccc3ncc(-c4cnc(Nc5ncccc5F)nc4)n3n2)CC1; 12
CC(C)CNc1ncc(-c2cnc3ccc(NC4CCN(C)CC4)nn23)cn1; 2
Fc1cccnc1Nc1ncc(-c2cnc3ccc(NC4CCC(N5CCNCC5)CC4)nn23)cn1 (centres unmarked); 11

Ask: Using known records, supply Ratio 3D7 PKG T618Q/3D7 for NC1CCC(Nc2ccc3ncc(-c4cnc(Nc5ccccn5)c(F)c4)n3n2)CC1 (centres unmarked)
Reply: 2

Provenance of the data: paper PMC4775997
